- experiment.description: chemical genetic growth profiling, strain panel (AID 1159580);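 note: tested at 20 µM; growth read once vehicle control cultures reached saturation at 30 °C; 1 = growth at the plate median or of vehicle wells; lower values mean less growth of the strain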
- experimental.context: S. cerevisiae deletion strains, growth OD, locus YNL071W, strain lat1, active compounds read low
Screen size: about 5,500 compounds; about 2,000 (36%) were called active. Inconclusive results (about 18%) are left out. The list shows a part of the results.
Let's look at some compounds and their measured normalized growth.
The response must contain the number and no unit.

Below, each entry is followed by its recorded normalized growth result.
>  <compound>
CC(C(=O)O)c1ccc(-c2ccccc2)c(F)c1 (centres undefined)

>  <outcome.measure>
normalized growth

>  <reading>
0.985

$$$$
>  <compound>
COC1=C(OC)C(=O)C(C/C=C(\C)CC/C=C(\C)CC/C=C(\C)CC/C=C(/C)CC/C=C(\C)CC/C=C(\C)CC/C=C(\C)CC/C=C(\C)CC/C=C(\C)CCC=C(C)C)=C(C)C1=O

>  <outcome.measure>
normalized growth

>  <reading>
0.965

$$$$
>  <compound>
CC(=O)OCC(=O)[C@@]1(O)CCC2C3CCC4=CC(=O)CC[C@]4(C)C3C(=O)C[C@@]21C (some centres undefined)

>  <outcome.measure>
normalized growth

>  <reading>
1.01

$$$$

The record that follows has no normalized growth shown yet.
Request: For the compound Cc1cccc(C)c1OCC(C)N (centres undefined) , report normalized growth.
Response: 1.01

* * *

- experiment.description: chemical genetic growth profiling, strain panel (AID 1159580);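 note: tested at 20 µM; growth read once vehicle control cultures reached saturation at 30 °C; 1 = growth at the plate median or of vehicle wells; lower values mean less growth of the strain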
- experimental.context: S. cerevisiae deletion strains, growth OD, locus YGL248W, strain PDE1
The campaign covered roughly 5,500 compounds. About 2,000 (36%) were called active. Roughly 18% stayed inconclusive and do not appear here. No stated cut-off is given here; in the data, active means normalized growth mostly below about 0.91 (no sharp cut-off); inconclusive means no clear call, values can overlap the other calls; inactive means mostly above about 0.92. This is one part of the list.
Use one of these outcomes when replying: 1.0 (active), 0.0 (inactive)

Solved cases below.
>  <compound>
COc1cc2c(cc1OC)C1C(=O)c3ccc4c(c3OC1CO2)CCC(C)(C)O4 (stereo not drawn)

>  <class.assignment>
0.0

$$$$
>  <compound>
NC(=O)c1ccc[n+]([C@@H]2O[C@H](COP(=O)([O-])OP(=O)(O)OC[C@H]3O[C@@H](n4cnc5c(N)ncnc54)[C@H](O)[C@@H]3O)[C@@H](O)[C@H]2O)c1

>  <class.assignment>
0.0

$$$$
>  <compound>
COc1cc2c(cc1OC)[C@@H]1C(=O)c3ccc(OC)c(CC=C(C)C)c3O[C@@H]1CO2

>  <class.assignment>
0.0

$$$$
>  <compound>
COC1=C(OC)C(=O)C(C/C=C(\C)CC/C=C(\C)CC/C=C(\C)CC/C=C(/C)CC/C=C(\C)CC/C=C(\C)CC/C=C(\C)CC/C=C(\C)CC/C=C(\C)CCC=C(C)C)=C(C)C1=O

>  <class.assignment>
0.0

$$$$
>  <compound>
NCCSSCCN

>  <class.assignment>
0.0

$$$$

Request: // return assay outcome for CCCCCCCCNC(C)C(O)c1ccc(SC(C)C)cc1 (stereo not drawn)
Response: 1.0

Request: Per the assay record, what outcome was assigned to CC1=C(CC(=O)O)c2cc(F)ccc2/C1=C\c1ccc(S(C)=O)cc1 (stereo not drawn) ?
Response: 0.0

Request: What is the recorded call for this compound in the test? NCC1CCC(C(=O)O)CC1 (stereo not drawn)
Response: 0.0

Request: Hi, do you know how CCCCCCCCCCCCCCCC[N+](C)(C)C came out in this test?
Response: 1.0

Request: # fetch the recorded call for CC(NCCc1ccc(O)cc1)C(O)c1ccc(O)cc1 (stereo not drawn) here
Response: 0.0

Request: Identify the outcome logged in this assay for the compound shown: COc1cc2c(cc1OC)[C@@H]1C(=O)c3ccc(O)c(CC=C(C)C)c3O[C@@H]1CO2
Response: 0.0

Request: Please indicate how the test categorized N=c1ccn2c(n1)O[C@@H]1C2O[C@H](CO)[C@H]1O (stereo partly drawn) .
Response: 0.0

Request: GET /call?item= COc1ccc2c(c1OC)C(=O)O[C@@H]2[C@H]1c2cc3c(cc2CCN1C)OCO3 returns the recorded outcome of this test.
Response: 0.0

Request: GET /call?item= CN(C)CC/C=C1\c2ccccc2Sc2ccc(Cl)cc21 returns the recorded outcome of this test.
Response: 0.0

Request: // param item: C[C@H]1OC(n2cc(F)c(=O)[nH]c2=O)C(O)[C@@H]1O (stereo partly drawn) ; yields the recorded call
Response: 0.0
